Field: IC50. Provide a value for each of the compounds that follow.
Target: CDK4/cyclin D3 (Homo sapiens)
Construct: purchased Carna Biosciences, Inc. QS S Assist CDK4/Cyclin D3_FP Kit
Sequence (P11802 whole entry): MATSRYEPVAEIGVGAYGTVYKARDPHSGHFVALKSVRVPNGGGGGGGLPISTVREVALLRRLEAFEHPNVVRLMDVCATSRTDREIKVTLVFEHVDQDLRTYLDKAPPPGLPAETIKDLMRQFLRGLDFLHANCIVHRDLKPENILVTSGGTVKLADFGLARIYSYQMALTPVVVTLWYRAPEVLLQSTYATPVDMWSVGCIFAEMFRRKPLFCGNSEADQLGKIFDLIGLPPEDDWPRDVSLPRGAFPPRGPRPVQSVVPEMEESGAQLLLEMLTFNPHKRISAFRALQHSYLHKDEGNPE
Sequence (P30281 whole entry partner): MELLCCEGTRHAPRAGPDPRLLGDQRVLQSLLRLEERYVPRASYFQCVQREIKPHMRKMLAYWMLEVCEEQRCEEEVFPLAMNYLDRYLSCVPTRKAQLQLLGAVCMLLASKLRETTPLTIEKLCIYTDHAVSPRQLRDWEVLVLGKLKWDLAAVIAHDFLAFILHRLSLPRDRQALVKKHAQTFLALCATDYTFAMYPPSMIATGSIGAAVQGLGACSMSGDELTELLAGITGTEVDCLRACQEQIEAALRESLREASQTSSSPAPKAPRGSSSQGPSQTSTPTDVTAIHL
Assay: Human CDK4/cyclin D3 inhibitory activity (QS S Assist CDK4/Cyclin D3_FP Kit, IMAP fluorescence polarization)
Format: biochemical
Settings: 50% inhibitory concentration against CDK4/cyclin D3, given as class symbol

Find the recorded IC50 belonging to CC(C)Nc1nc([C@@H](C)O)cc2cnc(Nc3ccc(N4CCNCC(C)C4=O)cn3)nc12 (stereo partly shown) and report it. < 10 nM

Ok, now `CCCCNc1nc([C@@H](C)O)cc2cnc(Nc3ccc(CN4CCC[C@@H](O)C4)cn3)nc12` < 10 nM

Same question, CO[C@H](C)c1cc2cnc(Nc3ccc(N4CCN(CC(=O)O)CC4C(F)(F)F)cn3)nc2c(NC(C)C)n1 (stereo partly shown) this time 10 to 100 nM

And `CCCCNc1nc([C@@H](C)OC)cc2cnc(Nc3ccc(N4CCNCC4)nn3)nc12` ? < 10 nM

Lookup `C[C@@H](O)c1cc2cnc(Nc3ccc(OCC4CNC4)cn3)nc2c(N[C@H]2CCCOC2)n1` < 10 nM

Try `CCCNc1nc([C@@H](C)OC)cc2cnc(Nc3ccc4c(n3)CCN(C(=O)CO)C4)nc12` next. 10 to 100 nM

Field entry: `CC(C)Nc1nc([C@@H](C)O)cc2cnc(Nc3ccc(C4CCN(CC(=O)O)CC4)cn3)nc12` < 10 nM

What about `CC(=O)c1cc2cnc(Nc3ccc4c(n3)CCNC4)nc2c(NC(C)C)n1` ? < 10 nM

Here is the next compound: COC1CCC(Nc2nc([C@@H](C)O)cc3cnc(Nc4ccc(OCCN(C)C)cn4)nc23)CC1 (stereo partly shown) < 10 nM

Likewise for `CCC(=O)c1cc2cnc(Nc3ccc(N4CCNCC4=O)cn3)nc2c(NC(C)C)n1` ? 10 to 100 nM

Repeat for the following compound: `CC(C)Nc1nc([C@@H](C)O)cc2cnc(Nc3ccc(N4CCN(C[C@@H](C)O)CC4)nn3)nc12` < 10 nM

Then CC(C)Nc1nc([C@@H](C)O)cc2cnc(Nc3ccc(NC(=O)C4CCCNC4)cn3)nc12 (stereo partly shown) ? < 10 nM

Now try `CO[C@H](C)c1cc2cnc(Nc3ccc(CN4CCNCC4)cn3)nc2c(NCCCF)n1` . < 10 nM

Same question for `CC(=O)c1cc2cnc(Nc3ccc(N4CCNCC4)cn3)nc2c(NCC2CC2)n1` please. 10 to 100 nM

Consider next the compound CC(O)c1cc2cnc(Nc3ccc(OCCN(C)C)cn3)nc2c(NC2CCC(C)(C)OC2)n1 (single isomer, unassigned) [Compound 689] in the same way. < 10 nM

Also `CO[C@H](C)c1cc2cnc(Nc3ccc4c(n3)CCN(C(=O)OCCN(C)C)C4)nc2c(N[C@H]2CCCOC2)n1` , if possible. < 10 nM

Another compound to check: CC(C)Nc1nc(C(C)O)cc2cnc(Nc3ccc(N4CCN(C(C)CO)CCC4=O)cn3)nc12 (single isomer, unassigned) [Compound 810] < 10 nM

Same for `CC1(c2cc3cnc(Nc4ccc5c(n4)CCN(CCO)C5)nc3c(N[C@H]3CC[C@H](O)CC3)n2)COC1` < 10 nM

Further, for C[C@@H](O)c1cc2cnc(Nc3ccc(CN4CCCC(O)C4)cn3)nc2c(N[C@H]2CC[C@H](O)CC2)n1 (stereo partly shown) ? < 10 nM

Subsequent entry: `CO[C@H](C)c1cc2cnc(Nc3ccc(N4CC5(CCN5)C4)nn3)nc2c(NC(C)C)n1` < 10 nM

And for `CC1(c2cc3cnc(Nc4ccc5c(n4)CCN(C(=O)CO)C5)nc3c(N[C@H]3CCCOC3)n2)COC1` ? < 10 nM

Next compound: `C[C@@H](O)c1cc2cnc(Nc3ccc(CN4CCN(CCO)CC4)cn3)nc2c(NCC(F)(F)F)n1` < 10 nM

One more compound: CO[C@H](C)c1cc2cnc(Nc3ccc(N4CCN(C(C)C(=O)O)CC4=O)cn3)nc2c(NC(C)C)n1 (stereo partly shown) 10 to 100 nM

For `CC(C)Nc1nc([C@@H](C)O)cc2cnc(Nc3ccc4c(n3)CCN(C(=O)C3CCNCC3)C4)nc12` then? < 10 nM

How about `CC(C)Sc1nc([C@@H](C)O)cc2cnc(Nc3ccc(N4CCNCC4=O)cn3)nc12` ? < 10 nM
